// data source = patent US20250034275A1

Listed below: EC50 values for each entry.
- testSystem: T1, human Trop-2 (on the surface of human cell lines) (human, UniProt P09758 27-323)
- T1 construct: Endogenous Trop-2 on NCI-H322, Capan-1, PC-3, HUVEC, OVCAR-3, HCC38 and HCC1806 cells; also called TACSTD2
- T1 sequence: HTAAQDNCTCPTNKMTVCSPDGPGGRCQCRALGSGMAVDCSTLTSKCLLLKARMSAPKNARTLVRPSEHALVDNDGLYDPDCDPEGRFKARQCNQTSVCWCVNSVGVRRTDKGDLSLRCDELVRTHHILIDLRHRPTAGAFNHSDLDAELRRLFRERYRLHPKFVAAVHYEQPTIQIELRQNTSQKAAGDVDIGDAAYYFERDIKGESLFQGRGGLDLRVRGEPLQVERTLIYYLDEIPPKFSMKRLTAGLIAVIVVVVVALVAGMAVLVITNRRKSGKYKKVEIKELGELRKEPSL
- assayProtocol: flow cytometry, HCC1806 cells
Unit nM implied. Number only.

Illustrative cases are given below, each with its answer.
- hz-Ab21-1.2 (antibody, human IgG1, kappa, V domains shown, Humanized antibody) VH: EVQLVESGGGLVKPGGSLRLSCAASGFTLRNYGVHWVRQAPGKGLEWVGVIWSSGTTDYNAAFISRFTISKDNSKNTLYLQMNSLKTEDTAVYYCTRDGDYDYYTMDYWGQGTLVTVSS VL: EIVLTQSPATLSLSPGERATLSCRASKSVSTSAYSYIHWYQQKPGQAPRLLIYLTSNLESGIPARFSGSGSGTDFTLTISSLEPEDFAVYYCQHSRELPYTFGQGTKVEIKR: 1.23
- ch-Ab35 (antibody, human IgG1, kappa, V domains shown, Mouse VH/VL on human IgG1 and human kappa constant regions; also called chimeric antibody of Ab35) VH: EVQLQQSGPDLVRPGASVKLSCKASGYTFTSSDINWVKQRPGQGLEWIGWIYPRDGSKKYNEKFKGKATLTVDTSSSTAYMEVHSLTSEDSAVYFCATRFATVVSNYGLDPWGQGTSVTVSS VL: AIVLTQSPAIMSASPGEKVTMTCSASSSVNYIYWYQRKPGSSPRLLIYDTSNLASGVPVRFSGSGSGTSYSLTISRMEAEDAATYYCQQWNSYPLTFGAGTKLELKR: 0.38

The reported value for hz-Ab2-1.2 (antibody, human IgG1, kappa, V domains shown, Humanized antibody) VH: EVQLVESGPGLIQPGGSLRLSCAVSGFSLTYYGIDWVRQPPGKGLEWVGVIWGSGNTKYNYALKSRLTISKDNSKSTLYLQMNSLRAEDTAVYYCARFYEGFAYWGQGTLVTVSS VL: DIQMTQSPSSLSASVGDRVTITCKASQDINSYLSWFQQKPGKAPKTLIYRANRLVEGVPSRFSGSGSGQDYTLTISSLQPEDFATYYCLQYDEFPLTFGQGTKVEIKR in terms of EC50 is 0.9

The reported value for hz-Ab21-2.1 (antibody, human IgG1, kappa, V domains shown, Humanized antibody) VH: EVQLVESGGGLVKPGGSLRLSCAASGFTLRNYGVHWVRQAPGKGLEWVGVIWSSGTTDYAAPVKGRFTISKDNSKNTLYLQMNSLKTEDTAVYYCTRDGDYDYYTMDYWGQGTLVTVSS VL: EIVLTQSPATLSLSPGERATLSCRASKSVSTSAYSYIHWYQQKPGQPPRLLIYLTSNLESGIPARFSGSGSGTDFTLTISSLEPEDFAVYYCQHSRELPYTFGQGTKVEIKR in terms of EC50 is 0.63
